Just for reference, ChEMBL document CHEMBL3232888 is where these values come from.

Measurement Protocol: Antagonist activity at Pseudomonas aeruginosa PqsR expressed in Escherichia coli DH5alpha assessed as inhibition of PQS-induced transcriptional activity by beta-galactosidase reporter gene assay relative to PQS
Metric Name: log10 of IC50 (log10 of the value in nM)

{"Compound": "CCOCCCCc1cc(=O)c2cc([N+](=O)[O-])ccc2[nH]1", "log10 of IC50": 3.55}
{"Compound": "CCCCCCCc1cc(=O)c2cc(C(F)(F)F)ccc2[nH]1", "log10 of IC50": 1.73}
{"Compound": "CCCCCCCc1cc(=O)c2cc([N+](=O)[O-])ccc2[nH]1", "log10 of IC50": 1.71}
{"Compound": "CCCCCOCc1cc(=O)c2cc(C(F)(F)F)ccc2[nH]1", "log10 of IC50": 2.24}
{"Compound": "CCCCCOCc1cc(=O)c2cc([N+](=O)[O-])ccc2[nH]1", "log10 of IC50": 2.40}
{"Compound": "CCOCCCCc1cc(=O)c2cc(C(F)(F)F)ccc2[nH]1", "log10 of IC50": 3.23}
{"Compound": "CCCCCCCc1[nH]c2ccc([N+](=O)[O-])cc2c(=O)c1CO", "log10 of IC50": 1.86}
{"Compound": "CCCCCCc1cc(=O)c2cc(C(F)(F)F)ccc2n1C", "log10 of IC50": 2.36}
{"Compound": "CCCCCCCc1cc(=O)c2cc(C(F)(F)F)ccc2n1C", "log10 of IC50": 2.43}
{"Compound": "CCCCCCCc1[nH]c2ccc([N+](=O)[O-])cc2c(=O)c1C(N)=O", "log10 of IC50": 1.54}

* * *

Overview of reported inhibition across a group of compounds:
Test system: Pseudomonas aeruginosa
Measurement Protocol: Antagonist activity at Pseudomonas aeruginosa PqsR expressed in Escherichia coli DH5alpha assessed as inhibition of PQS-induced transcriptional activity at 50 nM by beta-galactosidase reporter gene assay relative to PQS

{"Compound": "CCCCCCCc1cc(=O)c2cc([N+](=O)[O-])ccc2[nH]1", "Study Target": "Pseudomonas aeruginosa", "Output Unit": "%", "inhibition": 73}
{"Compound": "CCCCCCCc1[nH]c2ccccc2c(=O)c1CO", "Study Target": "Pseudomonas aeruginosa", "Output Unit": "%", "inhibition": 5}
{"Compound": "CCCCCCCc1[nH]c2ccc([N+](=O)[O-])cc2c(=O)c1C(=O)OCC", "Study Target": "Pseudomonas aeruginosa", "Output Unit": "%", "inhibition": -8}
{"Compound": "CCOCCCCc1cc(=O)c2ccccc2[nH]1", "Study Target": "Pseudomonas aeruginosa", "Output Unit": "%", "inhibition": 54}
{"Compound": "CCCCCOCc1[nH]c2ccc([N+](=O)[O-])cc2c(=O)c1C(=O)O", "Study Target": "Pseudomonas aeruginosa", "Output Unit": "%", "inhibition": 7}
{"Compound": "CCCCCCCc1[nH]c2ccccc2c(=O)c1[N+](=O)[O-]", "Study Target": "Pseudomonas aeruginosa", "Output Unit": "%", "inhibition": 14}
{"Compound": "CCCCCCCc1[nH]c2ccccc2c(=O)c1C(=O)O", "Study Target": "Pseudomonas aeruginosa", "Output Unit": "%", "inhibition": 12}
{"Compound": "CCCCCCCc1[nH]c2ccccc2c(=O)c1N", "Study Target": "Pseudomonas aeruginosa", "Output Unit": "%", "inhibition": -4}
{"Compound": "CCOCCCCc1[nH]c2ccc([N+](=O)[O-])cc2c(=O)c1C(=O)OCC", "Study Target": "Pseudomonas aeruginosa", "Output Unit": "%", "inhibition": 2}
{"Compound": "CCCCCCCc1[nH]c2ccccc2c(=O)c1C(N)=O", "Study Target": "Pseudomonas aeruginosa", "Output Unit": "%", "inhibition": 8}
{"Compound": "CCCCCCCc1[nH]c2ccncc2c(=O)c1C(=O)O", "Study Target": "Pseudomonas aeruginosa", "Output Unit": "%", "inhibition": 6}
{"Compound": "CCCCCCCc1cc(=O)c2cnccc2[nH]1", "Study Target": "Pseudomonas aeruginosa", "Output Unit": "%", "inhibition": 8}
{"Compound": "CCCCCCCc1[nH]c2ccncc2c(=O)c1C(=O)OCC", "Study Target": "Pseudomonas aeruginosa", "Output Unit": "%", "inhibition": 24}
{"Compound": "CCCCCCCc1cc(=O)c2cc(C(F)(F)F)ccc2[nH]1", "Study Target": "Pseudomonas aeruginosa", "Output Unit": "%", "inhibition": 54}
{"Compound": "CCCCCOCc1cc(=O)c2cc([N+](=O)[O-])ccc2[nH]1", "Study Target": "Pseudomonas aeruginosa", "Output Unit": "%", "inhibition": 49}
{"Compound": "CCOCCCCc1cc(=O)c2cc([N+](=O)[O-])ccc2[nH]1", "Study Target": "Pseudomonas aeruginosa", "Output Unit": "%", "inhibition": 6}
{"Compound": "CCCCCCCc1[nH]c2ccc([N+](=O)[O-])cc2c(=O)c1C(N)=O", "Study Target": "Pseudomonas aeruginosa", "Output Unit": "%", "inhibition": 60}
{"Compound": "CCCCCCc1cc(=O)c2cc(C(F)(F)F)ccc2n1C", "Study Target": "Pseudomonas aeruginosa", "Output Unit": "%", "inhibition": 45}
{"Compound": "CCCCCCCc1[nH]c2ccc([N+](=O)[O-])cc2c(=O)c1O", "Study Target": "Pseudomonas aeruginosa", "Output Unit": "%", "inhibition": -31}
{"Compound": "CCOCCCCc1cc(=O)c2cc(C(F)(F)F)ccc2[nH]1", "Study Target": "Pseudomonas aeruginosa", "Output Unit": "%", "inhibition": 8}
{"Compound": "CCOCCCCc1[nH]c2ccc([N+](=O)[O-])cc2c(=O)c1C(=O)O", "Study Target": "Pseudomonas aeruginosa", "Output Unit": "%", "inhibition": 1}
{"Compound": "CCCCCOCc1cc(=O)c2ccccc2[nH]1", "Study Target": "Pseudomonas aeruginosa", "Output Unit": "%", "inhibition": 11}
{"Compound": "CCCCCCCc1[nH]c2ccccc2c(=O)c1C(=O)NO", "Study Target": "Pseudomonas aeruginosa", "Output Unit": "%", "inhibition": 15}
{"Compound": "CCCCCCCc1cc(=O)c2cc(C(F)(F)F)ccc2n1C", "Study Target": "Pseudomonas aeruginosa", "Output Unit": "%", "inhibition": 31}
